readout kind: melting point

| smiles | melting point |
| --- | --- |
| O=C(O)C[C@]1(c2ccc(-c3cc4cc(F)ccc4s3)s2)CCCCS1(=O)=O | 219 to 221 °C |
| CCOc1ccc2cc(-c3ccc([C@@]4(CC(=O)O)CCCCS4(=O)=O)s3)ccc2c1 | 219 to 222 °C |

# get_value(readout='melting point', item= Cc1ccc(C#Cc2ccc([C@@]3(CC(=O)O)CCCCS3(=O)=O)s2)cc1 )
172 to 173 °C

Values from patent US20040266826A1
